Source listed as patent US20260070917A1.

tested_system: CCNE1 (Homo sapiens, UniProt P24864+P24941)
Construct: host or cells: HEK293-CCNE1-Hibit
Sequence (P24864 whole entry, one chain of several): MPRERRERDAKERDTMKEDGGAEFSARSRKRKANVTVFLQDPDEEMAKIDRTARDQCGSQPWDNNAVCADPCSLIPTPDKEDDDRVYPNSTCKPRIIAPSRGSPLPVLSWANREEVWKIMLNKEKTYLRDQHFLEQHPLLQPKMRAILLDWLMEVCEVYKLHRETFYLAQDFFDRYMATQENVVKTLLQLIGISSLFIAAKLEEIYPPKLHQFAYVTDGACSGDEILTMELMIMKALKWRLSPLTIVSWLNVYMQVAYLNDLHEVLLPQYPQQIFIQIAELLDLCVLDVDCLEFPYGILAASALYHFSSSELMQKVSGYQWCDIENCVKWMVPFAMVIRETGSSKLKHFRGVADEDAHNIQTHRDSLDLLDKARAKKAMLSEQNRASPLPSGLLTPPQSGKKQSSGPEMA
experimental_protocol: HiBit Assay Protocol for CCNE1 (HIBIT protein quantification, degradation)
Assay type: cell-based
applied_conditions: HEK293-CCNE1-Hibit cells, compound treatment for 6 hours, ABS DC50
observation_type: DC50 (nM)

1. CN(CCCN1CCC(c2cccc3c2n(C)c(=O)n3C2CCC(=O)NC2=O)CC1)S(=O)(=O)N1CCC(Nc2ncc3c(n2)N([C@@H]2CCC[C@@H](O)C2)C(=O)C32CC2)CC1 (some centres unmarked) [Compound 131] :: 19.9
2. Cn1nc(N2CCC(=O)NC2=O)c2ccc(C3CCN(Cc4cccc(S(=O)(=O)N5CC[C@@H](Nc6ncc7c(n6)N([C@@H]6CCC[C@@H](O)C6)C(=O)C76CC6)[C@H](F)C5)c4)CC3)cc21 [Compound 158] :: 5.96
3. CC(c1cc(S(=O)(=O)N2CC[C@H](Nc3ncc4c(n3)N([C@@H]3CCC[C@@H](O)C3)C(=O)C43CC3)[C@H](F)C2)ccc1F)N1CCC(c2ccc3c(N4CCC(=O)NC4=O)nn(C)c3c2)CC1 (single isomer, unassigned) [Compound 200] :: 9.88

P. CC1CCCC1N1C(=O)C2(CC2)c2cnc(Nc3ccc(S(=O)(=O)N(C)CCCN4CCC(c5cccc6c5n(C)c(=O)n6C5CCC(=O)NC5=O)CC4)cc3)nc21 (centres unmarked) [Compound 117]
Q. CN(CCCN1CCC(c2cccc3c2n(C)c(=O)n3C2CCC(=O)NC2=O)CC1)S(=O)(=O)c1ccc(Nc2ncc3c(n2)N([C@@H]2CCC[C@@H](O)C2)C(=O)C32CC2)cc1 (some centres unmarked) [Compound 116]
Exercise: Given the two records P and Q , choose the one whose DC50 value is lower. // return label of chosen record
Key: P

* * *

tested_system: CDK2 (Homo sapiens)
Construct: host or cells: HEK293-CDK2-Hibit
experimental_protocol: HiBit Assay Protocol for CDK2 (HIBIT protein quantification, degradation)
Format: cell-based
applied_conditions: HEK293-CDK2-Hibit cells, compound treatment for 6 hours
observation_type: CDK2 HIBIT Protein Quantification Maximum (%)

# example entries with known answers
1) Cn1c(=O)n(C2CCC(=O)NC2=O)c2ccc(-c3ccc(Oc4cccc(S(=O)(=O)N5CCC(Nc6ncc7c(n6)N([C@@H]6CCC[C@@H](O)C6)C(=O)C76CC6)CC5)c4)cc3)cc21 (stereo partly shown) :: 69
2) Cn1nc(N2CCC(=O)NC2=O)c2ccc(C3CCN(Cc4cccc(S(=O)(=O)N5CCC(Nc6ncc7c(n6)N([C@@H]6CCC[C@@H](O)C6)C(=O)C76CC6)CC5)c4)CC3F)cc21 (stereo partly shown) :: 85
3) CC1CCCC1N1C(=O)C2(CC2)c2cnc(NC3CCN(S(=O)(=O)N4CCCN(C(=O)CCCCc5ccc6c(c5)n(C)c(=O)n6C5CCC(=O)NC5=O)CC4)CC3)nc21 (stereo not shown) :: 21
4) CC(C)[C@H]1CN([C@H](C)c2cccc(S(=O)(=O)N3CC[C@H](Nc4ncc5c(n4)N([C@@H]4CCC[C@@H](O)C4)C(=O)C54CC4)[C@H](F)C3)c2)CCN1c1ccc2c(N3CCC(=O)NC3=O)nn(C)c2c1 (stereo in doubt) :: 85
5) Cn1nc(N2CCC(=O)NC2=O)c2ccc(C3CCN(Cc4cccc(S(=O)(=O)N5CCC(Nc6ncc7c(n6)N([C@@H]6CCC[C@@H](O)C6)C(=O)C76CC6)CC5)c4F)CC3)cc21 :: 74

A. O=C1CCC(N2Cc3cc(N4CCN(Cc5cccc(S(=O)(=O)N6CCC(Nc7ncc8c(n7)N([C@@H]7CCC[C@@H](O)C7)C(=O)C87CC7)CC6)c5)CC4)c(F)cc3C2=O)C(=O)N1 (stereo partly shown)
B. CC1CCCC1N1C(=O)C2(CC2)c2cnc(NC3CCN(S(=O)(=O)N4CC5(CCN(C(=O)CCCCCCCc6ccc7c(c6)n(C)c(=O)n7C6CCC(=O)NC6=O)CC5)C4)CC3)nc21 (stereo not shown)
Exercise: Parameter check: reported CDK2 HIBIT Protein Quantification Maximum is higher for which label, A or B ? // return label of chosen record
Key: A

P. Cn1c(=O)n(C2CCC(=O)NC2=O)c2ccc(N3CCN(Cc4cccc(S(=O)(=O)N5CCC(Nc6ncc7c(n6)N([C@@H]6CCC[C@@H](O)C6)C(=O)C76CC6)CC5)c4)CC3)cc21 (stereo partly shown)
Q. CC1CCCC1N1C(=O)C2(CC2)c2cnc(NC3CCN(S(=O)(=O)N4CCN(C(=O)CCCCCc5ccc6c(c5)n(C)c(=O)n6C5CCC(=O)NC5=O)CC4)CC3)nc21 (stereo not shown)
R. CC1CCCC1N1C(=O)C2(CC2)c2cnc(NC3CCN(S(=O)(=O)N4CC5CN(C(=O)CCCCCCCc6cccc7c6n(C)c(=O)n7C6CCC(=O)NC6=O)CC54)CC3)nc21 (stereo not shown)
Exercise: Sequence the entries by CDK2 HIBIT Protein Quantification Maximum, beginning with the highest number. Response field: labels, in requested order.
Key: P, Q, R
(P: 78%, Q: 46%, R: 24.9%)

* * *

tested_system: CDK9 (Homo sapiens, UniProt P50750)
Construct: host or cells: HEK293-CDK9-Hibit
Sequence (P50750 whole entry): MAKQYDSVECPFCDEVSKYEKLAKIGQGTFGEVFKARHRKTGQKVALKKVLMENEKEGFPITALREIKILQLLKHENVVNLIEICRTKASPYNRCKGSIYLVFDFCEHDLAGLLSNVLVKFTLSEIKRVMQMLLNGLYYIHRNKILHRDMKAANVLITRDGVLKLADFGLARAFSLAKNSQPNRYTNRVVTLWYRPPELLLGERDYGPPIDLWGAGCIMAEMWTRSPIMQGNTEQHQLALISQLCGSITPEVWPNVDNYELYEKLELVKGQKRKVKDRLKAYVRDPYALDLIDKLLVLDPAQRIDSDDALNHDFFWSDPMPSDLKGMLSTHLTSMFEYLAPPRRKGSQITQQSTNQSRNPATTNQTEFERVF
experimental_protocol: HiBit Assay Protocol for CDK9 (HIBIT protein quantification, degradation)
Format: cell-based
applied_conditions: 6 h, HEK293-CDK9-Hibit cells, compound treatment for 6 hours; read-out: CDK9 HIBIT Protein Quantification Maximum
observation_type: Dmax (%)

1. CC1CCCC1N1C(=O)C2(CC2)c2cnc(NC3CCN(S(=O)(=O)N4CCC5(CCN(C(=O)CCc6ccc7c(c6)n(C)c(=O)n7C6CCC(=O)NC6=O)C5)C4)CC3)nc21 (centres unmarked) :: 28
2. CC1CCCC1N1C(=O)C2(CC2)c2cnc(NC3CCN(S(=O)(=O)C4CCN(C(=O)CCCCCCCCCc5ccc6c(c5)n(C)c(=O)n6C5CCC(=O)NC5=O)C4)CC3)nc21 (centres unmarked) :: 45
3. CC1CCCC1N1C(=O)C2(CC2)c2cnc(NC3CCN(S(=O)(=O)N4CC(N(C)C(=O)CCCCCCCCCc5ccc6c(c5)n(C)c(=O)n6C5CCC(=O)NC5=O)C4)CC3)nc21 (centres unmarked) :: 34
4. CC1CCCC1N1C(=O)C2(CC2)c2cnc(NC3CCN(S(=O)(=O)N4CC5(CCCN(C(=O)CCCCc6cccc7c6n(C)c(=O)n7C6CCC(=O)NC6=O)C5)C4)CC3)nc21 (centres unmarked) :: 26
5. CC1CCCC1N1C(=O)C2(CC2)c2cnc(NC3CCN(S(=O)(=O)N4CC(N(C)C(=O)CCCCCc5cccc6c5n(C)c(=O)n6C5CCC(=O)NC5=O)C4)CC3)nc21 (centres unmarked) :: 61
6. CC1CCCC1N1C(=O)C2(CC2)c2cnc(NC3CCN(S(=O)(=O)N4CCCN(C(=O)CCCCCc5ccc6c(c5)n(C)c(=O)n6C5CCC(=O)NC5=O)CC4)CC3)nc21 (centres unmarked) :: 8
7. O=C1CCC(N2Cc3cc(N4CCN(C5CN(c6cccc(S(=O)(=O)N7CCC(Nc8ncc9c(n8)N([C@H]8CCC[C@H](O)C8)C(=O)C98CC8)CC7)c6)C5)CC4)ccc3C2=O)C(=O)N1 (stereo in doubt) :: 14
8. CC1CCCC1N1C(=O)C2(CC2)c2cnc(NC3CCN(S(=O)(=O)N4CC5CN(C(=O)CCCCc6ccc7c(c6)n(C)c(=O)n7C6CCC(=O)NC6=O)CC5C4)CC3)nc21 (centres unmarked) :: 0
9. Cn1c(=O)n(C2CCC(=O)NC2=O)c2cccc(N3CCN(Cc4cccc(S(=O)(=O)N5CCC(Nc6ncc7c(n6)N([C@@H]6CCC[C@@H](O)C6)C(=O)C76CC6)CC5)c4)CC3)c21 (some centres unmarked) :: 11
10. O=C1CCC(N2Cc3cc(CN4CC(Oc5cccc(S(=O)(=O)N6CCC(Nc7ncc8c(n7)N([C@@H]7CCC[C@@H](O)C7)C(=O)C87CC7)CC6)c5)C4)ccc3C2=O)C(=O)N1 (some centres unmarked) :: 7

a. CC1CCCC1N1C(=O)C2(CC2)c2cnc(NC3CCN(S(=O)(=O)N4CC5(CCN(C(=O)Cc6cccc7c6n(C)c(=O)n7C6CCC(=O)NC6=O)CC5)C4)CC3)nc21 (centres unmarked)
b. CC1CCCC1N1C(=O)C2(CC2)c2cnc(NC3CCN(S(=O)(=O)N4CCC5(CCCN5C(=O)CCCCc5ccc6c(c5)n(C)c(=O)n6C5CCC(=O)NC5=O)C4)CC3)nc21 (centres unmarked)
Exercise: Given the two records a and b , choose the one whose Dmax value is lower. // return label of chosen record
Key: a

A. C[C@@H](C1CC1)N1C(=O)C2(CC2)c2cnc(NC3CCN(S(=O)(=O)c4cccc(CN5CCC(c6ccc7c(N8CCC(=O)NC8=O)nn(C)c7c6)CC5)c4)CC3)nc21
B. CC1CN(Cc2cccc(S(=O)(=O)N3CCC(Nc4ncc5c(n4)N([C@@H]4CCC[C@@H](O)C4)C(=O)C54CC4)CC3)c2)CCC1c1ccc2c(N3CCC(=O)NC3=O)nn(C)c2c1 (some centres unmarked)
Exercise: Parameter check: reported Dmax is higher for which label, A or B ? // return label of chosen record
Key: B

P. CC(c1cccc(S(=O)(=O)N2CC[C@H](Nc3ncc4c(n3)N([C@@H]3CCC[C@@H](O)C3)C(=O)C43CC3)[C@H](F)C2)c1)N1CCN(c2ccc3c(N4CCC(=O)NC4=O)nn(C)c3c2)CC1 (some centres unmarked)
Q. CC1CCCC1N1C(=O)C2(CC2)c2cnc(NC3CCN(S(=O)(=O)N4CC5(CCCN(CCOc6cccc7c6n(C)c(=O)n7C6CCC(=O)NC6=O)C5)C4)CC3)nc21 (centres unmarked)
Exercise: Given the two records P and Q , choose the one whose Dmax value is lower. // return label of chosen record
Key: Q
(Q: 3%, P: 11%)

1. CC1CCCC1N1C(=O)C2(CC2)c2cnc(NC3CCN(S(=O)(=O)N4CC5(CCCN(C(=O)CCCc6cccc7c6n(C)c(=O)n7C6CCC(=O)NC6=O)C5)C4)CC3)nc21 (centres unmarked)
2. CC1CCCC1N1C(=O)C2(CC2)c2cnc(NC3CCN(S(=O)(=O)N4CCCC45CCN(C(=O)CCCc4cccc6c4n(C)c(=O)n6C4CCC(=O)NC4=O)C5)CC3)nc21 (centres unmarked)
3. Cn1nc(N2CCC(=O)NC2=O)c2ccc(C3CCN(CC4CCCN(S(=O)(=O)N5CCC(Nc6ncc7c(n6)N([C@@H]6CCC[C@@H](O)C6)C(=O)C76CC6)CC5)C4)CC3)cc21 (some centres unmarked)
4. C[C@H](c1cccc(S(=O)(=O)N2CC[C@H](Nc3ncc4c(n3)N([C@@H]3CCC[C@@H](O)C3)C(=O)C43CC3)[C@H](F)C2)c1)N1CCC(c2ccc3c(N4CCC(=O)NC4=O)nn(C)c3c2)CC1
Exercise: rank_up(items): orders items by reported Dmax in ascending numerical order. Response field: labels, in requested order.
Key: 2, 4, 1, 3
(2: -1%, 4: 2%, 1: 8%, 3: 27%)
